B1: FCHO1 (parent)
chain: FTSSPSPFSSSSPENVEDSGLDSP

Variants of: B1
Assay: protein stability index of a GFP-peptide fusion (GPS, HEK-293T) (PSI 1-6); higher = more stable;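 note: lentivirally expressed fusions sorted by FACS into six bins by GFP to DsRed ratio, PSI derived from sequencing read proportions per bin multiplied by bin number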
Conditions: c terminus: a fixed tail appended
Attribute: protein stability index

{"mutantLabel": "S10H", "protein stability index": 2}
{"mutantLabel": "E17H", "protein stability index": 1.98}
{"mutantLabel": "S19K", "protein stability index": 1.95}
